These data points were gathered from patent US20090324593A1.

Molecular target: T1, WNV E-protein domain III (dIII) (West Nile Virus, UniProt Q9Q6P4 580-705)
T1 construct: domain: Domain III; also called the antigen; the receptor
T1 sequence (looked up): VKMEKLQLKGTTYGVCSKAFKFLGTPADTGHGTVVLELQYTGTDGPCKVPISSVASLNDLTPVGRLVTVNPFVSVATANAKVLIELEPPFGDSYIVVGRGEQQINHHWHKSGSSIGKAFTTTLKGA
Assay: antigen capture ELISA (sheet title: E9 captured E protein DIII), 2.5 ng/well domain III captured by mouse antibody E9, HRP anti-human IgG F(ab')2 detection
property_name: EC50 (read off the curve)

query: Consider the binder shown here: Humanized E16 huE16-2.2 (huE16HC-2 V67A, M69F, T71A / huE16LC-2 Y49S) (antibody, V domains shown) VH: QVQLVQSGAEVKKPGASVKVSCKASGYTFTDYWIEWVRQAPGQGLEWMGDILCGTGRTRYNEKLKARATFTADTSTSTAYMELRSLRSDDTAVYYCARSASYGDYADYWGQGTTVTVSS VL: DIVMTQSPDSLAVSLGERATINCKASQDVSTAVAWYQQKPGQPPKLLISWASTRHTGVPDRFSGSGSGTDFTLTISSLQAEDVAVYYCQQHYTTPLTFGQGTKLEIK What is its recorded EC50 (read off the curve)?
result: ~0.01 mg/L
